Assay: Pharmacokinetics in Sprague Dawley rats (plasma and brain concentrations, PK parameters)
Type: in vivo
Details: Sprague Dawley, rat, plasma, iv, 3 mg/kg, Sprague Dawley rat, iv 3 mg/kg, Rat 2; read-out: T1/2 Rat 2 (converted)
Experimental: Pharmacokinetics for I-127, I-172 and I-210 were determined in Sprague Dawley rats or CD-1 mice by dosing intravenous (IV), subcutaneous (SC) or per oral (PO) using facility SOPs and sampling plasma at required time points. […] Compounds were extracted from plasma, injected on reverse phase HPLC, eluted with a gradient from 5% to 95% acetonitrile in water and quantified by mass spectrometry with internal standard. […]
endpointName: half-life (h)
Dear colleague, please return just the value in h, with no unit written.

Qu. Given O=C1CCC(N2C(=O)c3cccc(NCCOCCOCCNCc4ccc(-n5cc(NC(=O)c6coc(-c7ccnc(NCC8CC8)c7)n6)c(C(F)F)n5)cc4)c3C2=O)C(=O)N1 (stereo not shown) , state its recorded half-life.
Ans. 2.83

###

Biological target: UniProt Q9NWZ3
Sequence (Q9NWZ3 1-460): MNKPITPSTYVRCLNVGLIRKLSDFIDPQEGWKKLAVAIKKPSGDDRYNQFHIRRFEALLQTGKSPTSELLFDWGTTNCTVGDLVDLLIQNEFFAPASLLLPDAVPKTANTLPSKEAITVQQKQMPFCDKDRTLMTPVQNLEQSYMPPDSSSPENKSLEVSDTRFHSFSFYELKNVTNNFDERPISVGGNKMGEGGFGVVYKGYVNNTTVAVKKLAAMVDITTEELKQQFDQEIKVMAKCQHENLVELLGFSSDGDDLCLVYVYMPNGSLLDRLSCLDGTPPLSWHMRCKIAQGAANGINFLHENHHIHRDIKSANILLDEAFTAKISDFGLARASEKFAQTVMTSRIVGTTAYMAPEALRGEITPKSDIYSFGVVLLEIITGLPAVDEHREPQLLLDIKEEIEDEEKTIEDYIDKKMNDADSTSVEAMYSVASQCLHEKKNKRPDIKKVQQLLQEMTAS
Assay: OCI-LY-10 degradation assay (western blot, % IRAK4 degraded after 4 hours)
Assay type: cell-based
Set-up: endogenous in cells; host or cells: OCI-LY10
Conditions: OCI-LY10 cells, 4 hours, 0.01 uM compound
Description: Compounds were reconstituted in DMSO to make stock solutions at concentration of 60 mM. THP-1 and OCI-LY10 cells were maintained in RPMI-1640 medium containing 10% FBS, 0.5 μM 2-ME or 20% FBS, 55 μM 2-ME, and 1% L-Glutamine respectively. […] The protein concentration of cell lysates was quantified with Pierce™ BCA Protein Assay Kit (Pierce, 23227). […] After incubation at 37° C. for 30 min, the absorbance of samples at 562 nm were measured with EnVision Plate Reader. […]
endpointName: OCI-LY10 % IRAK4 Degradation (0.01 uM)

compound	assayResult
CN(CCNCCCc1cccc2c1C(=O)N(C1CCC(=O)NC1=O)C2=O)C(=O)c1ccc(-n2cc(NC(=O)c3coc(-c4ccncc4)n3)c(C(F)F)n2)cc1 (centres unmarked)	C (<20% degradation)
NC(=O)c1nn(-c2ccc(C(=O)NCCOCCOCCN3CCC(Nc4cccc5c4C(=O)N(C4CCC(=O)NC4=O)C5=O)CC3)cc2)cc1NC(=O)c1coc(-c2ccnc(NCC3CC3)c2)n1 (centres unmarked)	B (>20-50% degradation)
CC(=O)O[C@@H]1C[C@@H](C(=O)NCc2ccc(-n3cc(NC(=O)c4coc(-c5ccnc(NCC6CC6)c5)n4)c(C(F)F)n3)cc2)N(C(=O)[C@@H](NC(=O)COCCOCCOCCNc2cccc3c2C(=O)N(C2CCC(=O)NC2=O)C3=O)C(C)(C)C)C1 (some centres unmarked)	C (<20% degradation)
NC(=O)c1nn(-c2ccc(C(=O)NCCOCCOCCNc3cccc4c3C(=O)N(C3CCC(=O)NC3=O)C4=O)cc2)cc1NC(=O)c1coc(-c2ccnc(N)c2)n1 (centres unmarked)	B (>20-50% degradation)
